Cited source: paper PMC9863297

# Experiment: Edaravone solubility, slurry/shake-flask method with spectrophotometric determination at 243 nm
# Assay type: physicochemical
# Experimental Parameters: 40 °C, aqueous with cosolvent or surfactant or cyclodextrin, thermodynamic from solid, water + GLE (ChCl:GL 1:2), x*GLE = 0.5, 313.15 K; read-out: cE solubility concentration
Metric: solubility at 24 h (mg/mL)
Supply the numeric figure in mg/mL, leaving out any unit text.

Noted for CC1=NN(c2ccccc2)C(=O)C1 : its solubility at 24 h reads 647

====

# Experiment: Edaravone solubility, slurry/shake-flask method with spectrophotometric determination at 243 nm
# Assay type: physicochemical
# Experimental Parameters: 35 °C, aqueous with cosolvent or surfactant or cyclodextrin, thermodynamic from solid, water + GLE (ChCl:GL 1:2), x*GLE = 0.5, 308.15 K; read-out: cE solubility concentration
# Description: The first step in obtaining a calibration curve was the preparation of a stock solution of edaravone with a concentration of 2.3 mg/mL. This initial solution was successfully diluted in 10 mL volumetric flasks with methanol and the obtained solutions with decreasing concentrations were measured spectrophotometrically. […] The limits of detection (LOD) and quantification (LOQ) were calculated as 5.899∙10^−4 mg/mL and 1.770∙10^−3 mg/mL, respectively. […]
Metric: solubility at 24 h

Entry CC1=NN(c2ccccc2)C(=O)C1 [edaravone, 5-methyl-2-phenyl-4H-pyrazol-3-one] , solubility at 24 h reported as 518 mg/mL

====

# Experiment: Edaravone solubility, slurry/shake-flask method with spectrophotometric determination at 243 nm
# Format: physicochemical
# Experimental Parameters: deep eutectic solvent + water binary mixture, 40 °C, aqueous with cosolvent or surfactant or cyclodextrin, thermodynamic from solid, water + ETA (ChCl:EG 1:2), x*ETA = 0.8, 313.15 K; read-out: cE solubility concentration
Metric: solubility at 24 h
# answer = value followed by unit

solubility at 24 h for CC1=NN(c2ccccc2)C(=O)C1 is 655 mg/mL

====

# Experiment: Edaravone solubility, slurry/shake-flask method with spectrophotometric determination at 243 nm
# Assay type: physicochemical
# Experimental Parameters: 40 °C, aqueous with cosolvent or surfactant or cyclodextrin, thermodynamic from solid, water + GLE (ChCl:GL 1:2), x*GLE = 0.6, 313.15 K; read-out: cE solubility concentration
Metric: solubility at 24 h (mg/mL)
Supply the numeric figure in mg/mL, leaving out any unit text.

In plain terms, CC1=NN(c2ccccc2)C(=O)C1 has a documented solubility at 24 h of 692

====

# Experiment: Edaravone solubility, slurry/shake-flask method with spectrophotometric determination at 243 nm
# Assay type: physicochemical
# Experimental Parameters: water, neat water (x*DES = 0.0), 298.15 K; read-out: cE solubility concentration
Metric: solubility at 24 h (µg/mL)
Express it in µg/mL; write the number only.

Lookup result for CC1=NN(c2ccccc2)C(=O)C1 ; measured solubility at 24 h: 1720

====

# Experiment: Edaravone solubility, slurry/shake-flask method with spectrophotometric determination at 243 nm
# Type: physicochemical
# Experimental Parameters: 25 °C, aqueous with cosolvent or surfactant or cyclodextrin, thermodynamic from solid, water + GLE (ChCl:GL 1:2), x*GLE = 0.5, 298.15 K; read-out: cE solubility concentration
Metric: solubility at 24 h
Answer shape: numeric part, then the unit.

response.value for CC1=NN(c2ccccc2)C(=O)C1 (field: solubility at 24 h) = 299 mg/mL
